Provide the reported Avg % Edit of each item.
System: TTR
assay_info: TTR editing in primary human hepatocytes transfected with Spy Cas9 protein (RNP) loaded with dgRNAs (Table 8)
Format: cell-based
assay_conditions: dgRNA transfected with Spy Cas9 protein (RNP)
Just the number in %, nothing appended.

Task item: Bench note: what Avg % Edit did ACACAAAUACCAGUCCAGCA (tested as dual guide RNA, chemistry not given here) [CR003339] show?
Reply: 45.06

Task item: Bench note: what Avg % Edit did GGCGGCAAUGGUGUAGCGGC (tested as dual guide RNA, chemistry not given here) [CR003378] show?
Reply: 8.66

Task item: Bench note: what Avg % Edit did UGAAUCCAAGUGUCCUCUGA (tested as dual guide RNA, chemistry not given here) [CR005303] show?
Reply: 36.45

Task item: Bench note: what Avg % Edit did AGGCAGUCCUGCCAUCAAUG (tested as dual guide RNA, chemistry not given here) [CR003348] show?
Reply: 23.18
